The following compounds are shown together with reported remaining at 0.5 h, 1 µM values.
# assayProcedure: Metabolic stability in rat liver microsomes assessed as parent compound remaining at 1 uM preincubated for 5 mins followed by addition of NADPH regenerating system and measured after 30 mins by LC-MS/MS method
# Format: ADME, microsome
# assaySetup: read-out: Stability

inputSmiles	remaining at 0.5 h, 1 µM [%]
CN(c1ncnc2[nH]ccc12)[C@H]1CN(S(=O)(=O)c2cccc(C#N)c2)CC12CC2	2.4
CCS(=O)(=O)N1C[C@H](N(C)c2ncnc3[nH]ccc23)C2(CC2)C1	22.9
CN(c1ncnc2[nH]ccc12)[C@H]1CN(C(=O)CC#N)CC12CC2	84.8

The reported numbers originate from ChEMBL document CHEMBL4257478.
